This listing pairs compounds with measured melting point.

Field: example entries. Status: answers known.
>>> recorded_result("COc1ccc(N2C(=S)N(c3ccc(Oc4ccccc4)cc3)C(=O)C2C)cc1 (stereo not given)")
"208 to 210 °C"
>>> recorded_result("COc1ccc(-c2nc3nccnc3[nH]2)c(OC)c1")
"210 to 215 °C"
>>> recorded_result("CCN(CC)C(Cc1cccs1)=Nc1ccc2sc3ccccc3c2c1")
"114 to 115 °C"
>>> recorded_result("Nc1nc2ccccc2c2c1ncn2CCCCNC(=O)COc1ccc(C(=O)c2ccccc2)cc1")
"73 to 98 °C"
>>> recorded_result("CC(C)CC(SCc1ccccc1)c1c(O)cc(-c2ccccc2)oc1=O (stereo not given)")
"153 to 155 °C"
>>> recorded_result("Nc1cc(C(=O)NC2CC2)n(-c2nc(Cl)nc3ccoc23)n1")
"219 °C"

Item: `CN(C)C(=O)Oc1cccc2c1CC[C@H]1[C@H]2CCN1CCC1CCCCC1` | melting point: 110 to 112 °C

Item: `Nc1ncnc2c1ncn2OCCCCP(=O)(O)O` | melting point: 265 to 268 °C

Item: O=C(O)C1CCc2c(c3ccccc3n2C(=O)c2ccc(F)cc2)C1 (stereo not given) | melting point: 180 to 182 °C

Item: COC(=O)C(CC(N)C(=O)O)CC(N)N1C=CC=CC1 (stereo not given) | melting point: 240 to 242 °C

* * *

observation-type: melting point

Field: example entries. Status: answers known.
>>> recorded_result("CCCCCCCN(CCCCCSc1nc(-c2ccc(OC)cc2)c(-c2ccc(OC)cc2)[nH]1)c1nc2ccccc2[nH]1")
"78 to 80 °C"
>>> recorded_result("Nc1nc(O)c2c(n1)NCC(CCc1ccc(C(=O)N[C@@H](CCC(=O)O)C(=O)O)cc1)C2 (some centres undefined)")
"> 250 °C"
>>> recorded_result("CCOC(OCC)c1ncn(CCC(O)(c2ccc(F)cc2F)n2cncn2)n1 (centres undefined)")
"85 to 87 °C"
>>> recorded_result("COc1ccc(CC(C(=O)Nc2nc3ccccc3o2)c2ccc(S(C)(=O)=O)cc2)cc1 (centres undefined)")
"102 to 106 °C"
>>> recorded_result("CCc1nc2c(N)nc3ccccc3c2n1CC1(O)CCN(C)CC1")
"233 to 234 °C"
>>> recorded_result("COC(=O)CNC(=O)c1cc2c(C(=O)CN(Cc3ccccc3)C(C)(C)C)ccc(OCc3ccccc3)c2[nH]1")
"152 °C"
>>> recorded_result("N#Cc1ccc(C(=O)Nc2ccc(-n3nc(C(F)(F)F)cc3C(F)(F)F)cc2)cc1")
"169 to 171 °C"
>>> recorded_result("COc1nccc(C(F)(F)F)c1S(=O)(=O)Nc1nc2c(OC)cnc(OC)n2n1")
"214 to 216 °C"
>>> recorded_result("CCOC(=O)c1cc(-n2c(=O)c3c(n(COC)c2=O)CCC3)ccc1Cl")
"103 to 106 °C"
>>> recorded_result("COC(CC(=O)c1ccccc1)c1ccc(Cl)cc1F (centres undefined)")
"59 to 61 °C"

Item: `Cc1c(C(=O)O)nc2c(=O)[nH]c3cc(C(F)(F)F)ccc3n12` | melting point: > 250 °C

Item: Cc1ccc(S(=O)(=O)NC(Cc2ccccc2)C(=O)NCCCCC(C(=O)O)N(CC(C)C)S(=O)(=O)c2ccc(C)cc2)cc1 (centres undefined) | melting point: 301 to 306 °C

Item: `C=C(C)C(=O)OCCNC(=O)Nc1nc(=O)cc(C)[nH]1` | melting point: 208 °C

Item: `Cc1oc2ccccc2c(=O)c1C(=O)O` | melting point: 120 to 135 °C
